- Tested on: pY641-STAT6 in Peripheral Blood Mononuclear Cells (PBMC)
- protocol: MSD-pSTAT-PBMC Assay (pSTAT6, IL-4 stimulated)
- Format: cell-based, Human
- conditions_used: Homo sapiens, compound 3 hrs, then 1 ng/mL IL-4 for 10 min
pIC50: −log10 of the molar value.
Listed compounds paired with reported pIC50

CCCOC(=O)[C@H](C)NP(=O)(Oc1ccccc1)C(F)c1ccc2ccc(C(=O)N[C@H]3CN(C(=O)c4noc5c4CCCC5)CC[C@H]4CC[C@@H](C(=O)N5CCOCC5)N4C3=O)cc2c1 (some centres unmarked)
5.52 to 6.00
CCN1CC[C@H]2CC[C@@H](C(=O)N3CC(C(=O)N4CCOCC4)C3)N2C(=O)[C@@H](NC(=O)c2cc3cc(C(F)(F)P(=O)(OCOC(=O)C(C)(C)C)OCOC(=O)C(C)(C)C)ccc3s2)C1
< 5.52
CC(=O)N1CC[C@H]2CC[C@@H](C(=O)N(C)c3ccccc3)N2C(=O)[C@@H](NC(=O)c2cc3cc(C(F)(F)P(=O)(OCOC(=O)C(C)(C)C)OCOC(=O)C(C)(C)C)ccc3[nH]2)C1
6.00 to 7.00

Query: Dear colleague, please send me the reported pIC50 for CCCOC(=O)[C@H](C)NP(=O)(Oc1ccccc1)C(F)c1ccc2ccc(C(=O)N[C@H]3CN(C(=O)c4ncn5c4CCCC5)CC[C@H]4CC[C@@H](C(=O)N5CCOCC5)N4C3=O)cc2c1 (some centres unmarked) when you can.
Result: < 5.52

Query: Dear colleague, please send me the reported pIC50 for CC(=O)N1CC[C@H]2CC[C@@H](C(=O)Nc3cnc(S(C)(=O)=O)nc3)N2C(=O)[C@@H](NC(=O)c2cc3cc(C(F)(F)P(=O)(OCOC(=O)C(C)(C)C)OCOC(=O)C(C)(C)C)ccc3s2)C1 when you can.
Result: 5.52 to 6.00

###

- system_name: Recombinant STAT3 protein (STAT3(G127-I722)) (Homo sapiens, UniProt P40763)
- Construct: Recombinant STAT3 protein (STAT3(G127-I722))
- Sequence (P40763 127-722): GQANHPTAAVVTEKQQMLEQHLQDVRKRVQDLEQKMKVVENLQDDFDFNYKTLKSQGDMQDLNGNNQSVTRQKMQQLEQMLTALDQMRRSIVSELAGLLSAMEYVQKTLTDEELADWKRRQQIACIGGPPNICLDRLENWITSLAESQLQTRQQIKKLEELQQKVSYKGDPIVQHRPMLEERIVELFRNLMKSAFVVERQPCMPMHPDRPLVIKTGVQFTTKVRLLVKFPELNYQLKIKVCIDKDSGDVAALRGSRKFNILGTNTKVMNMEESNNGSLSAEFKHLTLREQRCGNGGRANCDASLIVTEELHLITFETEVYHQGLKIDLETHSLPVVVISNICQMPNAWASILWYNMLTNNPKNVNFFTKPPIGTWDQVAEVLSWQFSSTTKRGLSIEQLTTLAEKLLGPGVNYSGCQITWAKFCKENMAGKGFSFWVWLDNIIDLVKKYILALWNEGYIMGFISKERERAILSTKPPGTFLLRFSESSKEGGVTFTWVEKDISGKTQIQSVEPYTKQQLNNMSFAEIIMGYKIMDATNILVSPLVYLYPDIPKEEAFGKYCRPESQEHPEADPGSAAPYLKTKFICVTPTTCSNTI
- protocol: STAT3 Fluorescence Polarization (FP) Assay
- conditions_used: STAT3(G127-I722) 25 nM, probe 5-FAM-GpYLPQTV-NH2 2 nM, 45-minute incubation
pIC50: −log10 of the molar value.
Listed molecules paired with reported pIC50

Here's what some known entries look like.
CC(=O)N1CC[C@H]2CC[C@@H](C(=O)N3CC(c4ccccc4)[C@@H](c4ccccc4)C3)N2C(=O)[C@@H](NC(=O)c2cc3cc(C(F)(F)P(=O)(O)O)ccc3s2)C1 (relative stereo)
5.00 to 6.00
CC(=O)N1CC[C@H]2CC[C@@H](C(=O)N3CC(c4cccnc4)C3)N2C(=O)[C@@H](NC(=O)c2cc3cc(C(F)(F)P(=O)(O)O)ccc3s2)C1
≥ 7.00
O=C(N[C@H]1CN(Cc2ccn3ccnc3c2)CC[C@H]2CC[C@@H](C(=O)N3CC(c4cccnc4)C3)N2C1=O)c1cc2cc(C(F)(F)P(=O)(O)O)ccc2s1
≥ 7.00

Query: Dear colleague, please send me the reported pIC50 for CC(=O)N1CC[C@H]2CC[C@@H](C(=O)N(C)c3ccccc3)N2C(=O)[C@@H](NC(=O)c2nc3cc(C(F)(F)P(=O)(O)O)ccc3s2)C1 when you can.
Result: < 5.00

Query: Dear colleague, please send me the reported pIC50 for CC(C)(CC(=O)N1CC[C@H]2CC[C@@H](C(=O)N3CC(c4cccnc4)C3)N2C(=O)[C@@H](NC(=O)c2cc3cc(C(F)(F)P(=O)(O)O)ccc3s2)C1)C1CCCCC1 when you can.
Result: ≥ 7.00

Query: Dear colleague, please send me the reported pIC50 for CC(=O)N1CC[C@H]2CC[C@@H](C(=O)N3CCC[C@H]3Cc3ccccc3)N2C(=O)[C@@H](NC(=O)c2cc3cc(C(F)(F)P(=O)(O)O)ccc3s2)C1 when you can.
Result: 5.00 to 6.00

Query: Dear colleague, please send me the reported pIC50 for O=C(N[C@H]1CN(CC(F)(F)F)CC[C@H]2CC[C@@H](C(=O)N3CC(C(=O)N4CCOCC4)C3)N2C1=O)c1cc2cc(C(F)(F)P(=O)(O)O)ccc2s1 when you can.
Result: ≥ 7.00

Query: Dear colleague, please send me the reported pIC50 for CO[C@H]1CN(C(C)=O)C[C@@H]1NC(=O)[C@@H]1CC[C@@H]2CCN(C(C)=O)C[C@H](NC(=O)c3cc4cc(C(F)(F)P(=O)(O)O)ccc4s3)C(=O)N21 when you can.
Result: 6.00 to 7.00

Query: Dear colleague, please send me the reported pIC50 for CC(=O)N1CC[C@H]2CC[C@@H](C(=O)Nc3ccc(-c4ccccc4)cc3)N2C(=O)[C@@H](NC(=O)c2cc3c(F)c(C(F)(F)P(=O)(O)O)ccc3s2)C1 when you can.
Result: 6.00 to 7.00

Query: Dear colleague, please send me the reported pIC50 for Cc1ccc2[nH]nc(C(=O)N3CC[C@H]4CC[C@@H](C(=O)N(C)C)N4C(=O)[C@@H](NC(=O)c4ccc5ccc(C(F)(F)P(=O)(O)O)cc5c4)C3)c2c1 when you can.
Result: 5.00 to 6.00

###

Listed molecules paired with reported pIC50
- system_name: Recombinant STAT6 protein (STAT6(W123-T658)) (Homo sapiens, UniProt P42226)
- Construct: Recombinant STAT6 protein (STAT6(W123-T658))
- Sequence (P42226 123-658): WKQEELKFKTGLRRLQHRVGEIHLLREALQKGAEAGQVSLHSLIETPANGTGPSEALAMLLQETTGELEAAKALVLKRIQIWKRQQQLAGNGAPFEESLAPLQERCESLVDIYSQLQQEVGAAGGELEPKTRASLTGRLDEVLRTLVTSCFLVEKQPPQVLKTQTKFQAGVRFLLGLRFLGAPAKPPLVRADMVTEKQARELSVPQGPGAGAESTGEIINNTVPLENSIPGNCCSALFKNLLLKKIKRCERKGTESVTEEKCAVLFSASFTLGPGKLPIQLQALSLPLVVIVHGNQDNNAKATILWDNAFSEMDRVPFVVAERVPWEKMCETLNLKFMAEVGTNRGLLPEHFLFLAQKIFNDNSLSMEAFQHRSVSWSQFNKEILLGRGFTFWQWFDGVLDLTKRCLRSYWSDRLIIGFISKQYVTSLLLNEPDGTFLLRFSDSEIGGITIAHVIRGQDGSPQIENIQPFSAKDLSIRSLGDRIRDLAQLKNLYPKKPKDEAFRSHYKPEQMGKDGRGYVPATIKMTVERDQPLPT
- protocol: STAT6 Fluorescence Polarization (FP) Assay
- conditions_used: STAT6(W123-T658) 250 nM, probe 5-FAM-ApYKPFQDLI-NH2 2 nM, 45-minute incubation
pIC50: −log10 of the molar value.

CC(=O)N1CC[C@H]2CC[C@@H](C(=O)N3C[C@H](C#N)C[C@@H]3Cc3ccccc3)N2C(=O)[C@@H](NC(=O)c2cc3cc(C(F)(F)P(=O)(O)O)ccc3s2)C1 [Compound 43]
5.52 to 6.52

Query: Dear colleague, please send me the reported pIC50 for O=C(N[C@H]1CCN(C(=O)OCc2ccccc2)C[C@H]2CC[C@@H](C(=O)N3CC(c4cccnc4)C3)N2C1=O)c1cc2cc(C(F)(F)P(=O)(O)O)ccc2s1 [Compound 214] when you can.
Result: 4.52 to 5.52

Query: Dear colleague, please send me the reported pIC50 for CC(=O)N1CC[C@H]2CC[C@@H](C(=O)Nc3ccc(=O)n(C)c3)N2C(=O)[C@@H](NC(=O)c2cc3cc(C(F)(F)P(=O)(O)O)ccc3s2)C1 [Compound 71] when you can.
Result: 5.52 to 6.52

###

- system_name: Recombinant STAT3 protein (STAT3(G127-I722)) (Homo sapiens, UniProt P40763)
- Construct: Recombinant STAT3 protein (STAT3(G127-I722))
- protocol: STAT3 Fluorescence Polarization (FP) Assay
- conditions_used: STAT3(G127-I722) 25 nM, probe 5-FAM-GpYLPQTV-NH2 2 nM, 45-minute incubation
measured_attribute: IC50

CC(=O)N1CC[C@H]2CC[C@@H](C(=O)N3CCC(c4cccnc4)C3)N2C(=O)[C@@H](NC(=O)c2ccc3ccc(C(F)P(=O)(O)O)cc3c2)C1 (some centres unmarked)
1 to 10 µM
CC(=O)N1CCC(NC(=O)c2ccc3ccc(C(F)(F)P(=O)(O)O)cc3c2)C(=O)N2C(CCC2C(=O)N2CC(C#N)C(c3ccccc3)C2)C1 (mixture of isomers)
1 to 10 µM
CNC(=O)[C@@H]1CC[C@@H]2CCN(C(C)=O)C[C@H](NC(=O)c3cc4cc(C(F)(F)P(=O)(O)O)ccc4[nH]3)C(=O)N21
1 to 10 µM
O=C(N[C@H]1CN(Cc2ccn3ccnc3c2)CC[C@H]2CC[C@@H](C(=O)N3CC(c4cccnc4)C3)N2C1=O)c1cc2cc(CP(=O)(O)O)ccc2s1
≤ 0.1 µM

Query: Dear colleague, please send me the reported IC50 for CC(=O)N1CC[C@H]2CC[C@@H](C(=O)N(C)c3ccccc3)N2C(=O)[C@@H](NC(=O)c2ccc3cc(C(F)(F)P(=O)(O)O)ccc3c2)C1 when you can.
Result: > 10 µM

Query: Dear colleague, please send me the reported IC50 for O=C(N[C@H]1CN(C(=O)NCC23CCN(CC2)CC3)CC[C@H]2CC[C@@H](C(=O)N3CC(c4cccnc4)C3)N2C1=O)c1cc2cc(C(F)(F)P(=O)(O)O)ccc2s1 when you can.
Result: ≤ 0.1 µM

Query: Dear colleague, please send me the reported IC50 for CC(=O)N1CC[C@H]2CC[C@@H](C(=O)N3C[C@H](C#N)[C@@]4(C3)C(=O)Nc3ccccc34)N2C(=O)[C@@H](NC(=O)c2cc3cc(C(F)(F)P(=O)(O)O)ccc3s2)C1 (single isomer, unassigned) when you can.
Result: 1 to 10 µM

Query: Dear colleague, please send me the reported IC50 for CC(=O)N1CC[C@H]2CC[C@@H](C(=O)Nc3ccc(=O)n(C)c3)N2C(=O)[C@@H](NC(=O)c2cc3cc(C(F)(F)P(=O)(O)O)ccc3s2)C1 when you can.
Result: 1 to 10 µM

Query: Dear colleague, please send me the reported IC50 for C[C@@H](C(=O)N1CC[C@H]2CC[C@@H](C(=O)Nc3ccc(-c4ccccc4)cc3)N2C(=O)[C@@H](NC(=O)c2cc3cc(C(F)(F)P(=O)(O)O)ccc3[nH]2)C1)c1ccccc1 when you can.
Result: 1 to 10 µM

Query: Dear colleague, please send me the reported IC50 for COc1cccc([C@@H]2CN(C(=O)[C@@H]3CC[C@@H]4CCN(C(C)=O)C[C@H](NC(=O)c5cc6cc(C(F)(F)P(=O)(O)O)ccc6s5)C(=O)N43)C[C@H]2C#N)c1 (relative stereo) when you can.
Result: 1 to 10 µM

Query: Dear colleague, please send me the reported IC50 for CC(=O)N1CC[C@H]2CC[C@@H](C(=O)Nc3ccc(-c4ccccc4)[nH]c3=O)N2C(=O)[C@@H](NC(=O)c2cc3cc(C(F)(F)P(=O)(O)O)ccc3[nH]2)C1 when you can.
Result: 0.1 to 1 µM

Values were extracted from patent US20250179103A1.
